B1: PDZK1 (parent)
chain: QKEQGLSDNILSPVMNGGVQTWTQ

Variants of: B1
assay_info: protein stability index of a GFP-peptide fusion (GPS, HEK-293T) (PSI 1-6); higher = more stable;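 note: lentivirally expressed fusions sorted by FACS into six bins by GFP to DsRed ratio, PSI derived from sequencing read proportions per bin multiplied by bin number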
test_conditions: c terminus: a fixed tail appended
Use true (1) when the recorded protein stability index is no lower than 3; use false (0) when it is lower.

Solved entries:
QKEQGLSDNILSIVMNGGVQTWTQ [P13I]    false (0)
QCEQGLSDNILSPVMNGGVQTWTQ [K2C]    true (1)
QKEQGLKDNILSPVMNGGVQTWTQ [S7K]    false (0)
QKEQGLSDNILDPVMNGGVQTWTQ [S12D]    true (1)
QKENGLSDNILSPVMNGGVQTWTQ [Q4N]    false (0)

Query string: Identify whether the reported protein stability index of the following variant is 3 or greater: QKEQGLSDNILSPVMNGGVYTWTQ [Q20Y]
Result string: false (0)
